- Assayed target: GABA-A receptor; alpha-2/beta-3/gamma-2 (Homo sapiens, UniProt P18507+P28472+P47869)
- Sequence (P18507 whole entry): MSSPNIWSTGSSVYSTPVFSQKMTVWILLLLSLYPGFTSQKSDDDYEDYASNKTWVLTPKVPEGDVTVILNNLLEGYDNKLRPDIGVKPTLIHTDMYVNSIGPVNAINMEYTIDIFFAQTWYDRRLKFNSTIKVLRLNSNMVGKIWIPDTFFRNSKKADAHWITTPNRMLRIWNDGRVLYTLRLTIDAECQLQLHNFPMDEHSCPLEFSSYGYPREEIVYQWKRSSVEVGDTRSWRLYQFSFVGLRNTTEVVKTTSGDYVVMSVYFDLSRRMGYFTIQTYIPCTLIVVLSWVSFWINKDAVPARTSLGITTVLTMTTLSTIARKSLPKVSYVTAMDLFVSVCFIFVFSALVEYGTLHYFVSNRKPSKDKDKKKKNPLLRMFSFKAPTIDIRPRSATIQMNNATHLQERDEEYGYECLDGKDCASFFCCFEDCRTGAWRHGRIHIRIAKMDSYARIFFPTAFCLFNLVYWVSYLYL
- Sequence (P28472 whole entry): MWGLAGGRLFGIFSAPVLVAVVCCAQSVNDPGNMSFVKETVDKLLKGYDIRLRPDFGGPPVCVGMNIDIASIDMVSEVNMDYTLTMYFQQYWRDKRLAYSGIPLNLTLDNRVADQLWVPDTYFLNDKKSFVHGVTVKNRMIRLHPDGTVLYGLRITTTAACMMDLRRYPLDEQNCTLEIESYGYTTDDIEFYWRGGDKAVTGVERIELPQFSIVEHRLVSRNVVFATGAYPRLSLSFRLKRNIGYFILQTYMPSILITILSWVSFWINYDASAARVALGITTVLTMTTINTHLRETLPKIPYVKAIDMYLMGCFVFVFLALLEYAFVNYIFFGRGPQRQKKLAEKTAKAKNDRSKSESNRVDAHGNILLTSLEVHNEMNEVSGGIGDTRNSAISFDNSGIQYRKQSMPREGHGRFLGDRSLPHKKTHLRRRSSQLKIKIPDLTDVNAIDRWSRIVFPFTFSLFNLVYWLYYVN
- Sequence (P47869 whole entry): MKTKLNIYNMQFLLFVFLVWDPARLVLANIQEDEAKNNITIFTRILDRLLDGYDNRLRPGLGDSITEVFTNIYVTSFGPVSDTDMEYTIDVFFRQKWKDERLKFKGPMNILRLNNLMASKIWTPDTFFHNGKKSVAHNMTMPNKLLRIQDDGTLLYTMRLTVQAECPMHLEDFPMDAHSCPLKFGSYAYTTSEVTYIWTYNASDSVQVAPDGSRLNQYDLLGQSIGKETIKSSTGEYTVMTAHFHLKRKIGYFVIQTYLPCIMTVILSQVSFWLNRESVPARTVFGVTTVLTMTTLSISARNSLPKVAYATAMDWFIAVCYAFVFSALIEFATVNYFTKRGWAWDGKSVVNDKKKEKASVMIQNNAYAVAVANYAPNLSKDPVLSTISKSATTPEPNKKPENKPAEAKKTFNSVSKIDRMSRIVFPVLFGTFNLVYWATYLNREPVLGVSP
- Test details: Displacement of [3H]-Ro 15-1788 from Homo sapiens (human) recombinant GABAA alpha2beta3gamma2 receptor expressed in Ltk- cells after 1 hr by liquid scintillation counting
pKi: −log10 of the molar value.
This section presents compounds with their documented pKi values.

# Query smiles, pKi
rows = [
    ("C[Si](C)(C)C#Cc1ccc2c(c1)C(=O)N1CCC[C@H]1c1c(C(=O)OCC(F)(F)F)ncn1-2", "< 6.48"),
    ("CC(C)(C)OC(=O)c1ncn2c1[C@@H]1CCCN1C(=O)c1cc(C#C[Si](C)(C)C)ccc1-2", "< 6.48"),
    ("O=C(OCC(F)(F)F)c1ncn2c1[C@@H]1CCCN1C(=O)c1cc(-c3ccccc3)ccc1-2", "< 6.48"),
]
